Hello, the source for this data is patent US5554640A, in case you need it.

# pIC50 per entry
Molecular target: serotonin-1A receptor (5-HT1A) (Rattus norvegicus, UniProt P19327)
Sequence (P19327 1-422): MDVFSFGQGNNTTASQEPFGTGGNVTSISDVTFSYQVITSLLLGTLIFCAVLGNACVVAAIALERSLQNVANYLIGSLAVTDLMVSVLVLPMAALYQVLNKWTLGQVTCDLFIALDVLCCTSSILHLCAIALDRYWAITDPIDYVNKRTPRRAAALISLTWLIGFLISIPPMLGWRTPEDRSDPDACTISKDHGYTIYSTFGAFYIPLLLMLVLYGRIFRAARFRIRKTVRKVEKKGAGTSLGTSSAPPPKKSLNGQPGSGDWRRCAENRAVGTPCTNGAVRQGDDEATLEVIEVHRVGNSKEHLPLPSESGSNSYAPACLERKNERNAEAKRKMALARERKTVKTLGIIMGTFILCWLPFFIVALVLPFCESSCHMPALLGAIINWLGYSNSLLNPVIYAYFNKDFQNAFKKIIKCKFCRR
Test: biochemical
Assay type: binding, rat (Sprague-Dawley)
Conditions: inhibition of 0.4 nM 3H-8OHDPAT binding, rat cortical membranes, 28 C, 30 minutes, pH 7.4
Procedure: The compounds of this invention were evaluated in the following tests systems. Procedure for radioligand receptor assays--Male Sprague-Dawley rats weighing 110-150 g were decapitated and brains were immediately removed. […] Binding of ^3 H-8-hydroxy-2- (di-n-propylamino) tetralin(3H-80HDPAT) to serotonin-1A receptor was performed according to the method described by Wong et al., J. Neural Transm. , 71, 207 (1988). […] Radioactivity was measured with a liquid scintillation spectrometer. […]
Field pIC50 (float): negative decimal logarithm of the concentration in molar.

Solved entries:
1) CC(C)CNCC(O)COc1cccc2ccccc12 (stereo not shown) :: 7.14
2) CCC(C)(C)NCC(O)COc1cccc2ccccc12 (stereo not shown) :: 7.28
3) OC(CNCCc1ccccc1)COc1cccc2ccccc12 (stereo not shown) :: 7.20
4) COCC(C)NCC(O)COc1cccc2ccccc12 (stereo not shown) :: 6.83
5) OC(CNC1CCCCC1)COc1cccc2ccccc12 (stereo not shown) :: 7.81
6) CCCC(C)(C)NCC(O)COc1cccc2ccccc12 (stereo not shown) :: 7.39

Prompt line: For the compound shown here, OC(CN[C@H]1CC[C@@H](c2ccccc2)CC1)COc1cccc2ccccc12 (stereo partly shown) [(Z-4-phenylcyclohexyl)] , give the reported pIC50.
Response line: 7.47

Prompt line: For the compound shown here, CC(C)(C)NCC(O)COc1cccc2ccccc12 (stereo not shown) , give the reported pIC50.
Response line: 7.11

Prompt line: For the compound shown here, CCC(C)NCC(O)COc1cccc2ccccc12 (stereo not shown) , give the reported pIC50.
Response line: 7.14

Prompt line: For the compound shown here, OC(CNC1CCCC1)COc1cccc2ccccc12 (stereo not shown) , give the reported pIC50.
Response line: 7.31

----------
Biological target: serotonin-1A receptor (5-HT1A) (Rattus norvegicus, UniProt P19327)
Sequence (P19327 1-422): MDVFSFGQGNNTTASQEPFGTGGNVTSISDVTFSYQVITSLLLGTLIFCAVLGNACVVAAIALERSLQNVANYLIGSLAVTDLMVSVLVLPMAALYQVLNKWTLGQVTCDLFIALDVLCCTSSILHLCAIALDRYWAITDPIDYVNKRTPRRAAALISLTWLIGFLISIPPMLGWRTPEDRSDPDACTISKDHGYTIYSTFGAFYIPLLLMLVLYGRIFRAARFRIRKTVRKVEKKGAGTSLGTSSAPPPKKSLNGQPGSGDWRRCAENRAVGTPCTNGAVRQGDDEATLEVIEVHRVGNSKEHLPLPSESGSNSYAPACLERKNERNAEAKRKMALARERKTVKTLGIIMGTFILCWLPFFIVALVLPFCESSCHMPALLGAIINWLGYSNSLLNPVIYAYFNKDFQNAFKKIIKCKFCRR
Test: biochemical
Type: binding, rat (Sprague-Dawley)
# pIC50 per entry
Field pIC50 (float): negative decimal logarithm of the concentration in molar.

Solved entries:
1) O=C(O)C(=O)O.OC(CNC1CCCCCCC1)COc1ccccc1C1CCCC1 (centres unmarked) [cyclooctyl] :: 8.30
2) O=C(O)C(=O)O.OC(CNC1CCCCCCC1)COc1cccc2ccccc12 (centres unmarked) [(cyclooctyl)] :: 7.35
3) CCCC(C)(C)NCC(O)COc1ccccc1C1CCCC1.O=C(O)C(=O)O (centres unmarked) [CH(CH3)2 CH2 CH2 CH3] :: 8.19

Prompt line: Give recorded pIC50 with serotonin-1A receptor (5-HT1A) (Rattus norvegicus, UniProt P19327) for the following compound: O=C(O)C(=O)O.OC(CNC1CCCCCC1)COc1cccc2ccccc12 (centres unmarked) [(cycloheptyl)]
Response line: 7.64

Prompt line: Give recorded pIC50 with serotonin-1A receptor (5-HT1A) (Rattus norvegicus, UniProt P19327) for the following compound: O=C(O)C(=O)O.OC(CNC1CCCCCC1)COc1ccccc1C1CCCC1 (centres unmarked) [cycloheptyl]
Response line: 8.52
